Reference source for all entries: ChEMBL document CHEMBL3526148

- assay info: Apparent permeability from basolateral to apical side in human Caco2 cells at 5 uM after 2 hrs
- Assay type: ADME, cell-based
- assay context: Caco-2
reported endpoint: Papp B→A at 2 h, 5 µM (×10⁻⁶ cm/s)
Expressed in ×10⁻⁶ cm/s, but write only the number.

Prompt: Looking for the measured Papp B→A at 2 h, 5 µM of O=C1CN(/N=C/c2ccc(-c3ccc([N+](=O)[O-])cc3)o2)C(O)=N1 , can you help?
Completion: 9.8

---

- assay info: Apparent permeability from apical to basolateral side in human Caco2 cells at 5 uM after 2 hrs
- Type: ADME, cell-based
- assay context: Caco-2
reported endpoint: Papp A→B at 2 h, 5 µM (×10⁻⁶ cm/s)
Expressed in ×10⁻⁶ cm/s, but write only the number.

Prompt: Looking for the measured Papp A→B at 2 h, 5 µM of O=C1CN(/N=C/c2ccc(-c3ccc([N+](=O)[O-])cc3)o2)C(O)=N1 , can you help?
Completion: 2
